- target: FLK-1 receptor (Mus musculus, UniProt P35918)
- Construct: expressed in transfected cells; host or cells: NIH3T3 C7#3
- Sequence (P35918 20-1345): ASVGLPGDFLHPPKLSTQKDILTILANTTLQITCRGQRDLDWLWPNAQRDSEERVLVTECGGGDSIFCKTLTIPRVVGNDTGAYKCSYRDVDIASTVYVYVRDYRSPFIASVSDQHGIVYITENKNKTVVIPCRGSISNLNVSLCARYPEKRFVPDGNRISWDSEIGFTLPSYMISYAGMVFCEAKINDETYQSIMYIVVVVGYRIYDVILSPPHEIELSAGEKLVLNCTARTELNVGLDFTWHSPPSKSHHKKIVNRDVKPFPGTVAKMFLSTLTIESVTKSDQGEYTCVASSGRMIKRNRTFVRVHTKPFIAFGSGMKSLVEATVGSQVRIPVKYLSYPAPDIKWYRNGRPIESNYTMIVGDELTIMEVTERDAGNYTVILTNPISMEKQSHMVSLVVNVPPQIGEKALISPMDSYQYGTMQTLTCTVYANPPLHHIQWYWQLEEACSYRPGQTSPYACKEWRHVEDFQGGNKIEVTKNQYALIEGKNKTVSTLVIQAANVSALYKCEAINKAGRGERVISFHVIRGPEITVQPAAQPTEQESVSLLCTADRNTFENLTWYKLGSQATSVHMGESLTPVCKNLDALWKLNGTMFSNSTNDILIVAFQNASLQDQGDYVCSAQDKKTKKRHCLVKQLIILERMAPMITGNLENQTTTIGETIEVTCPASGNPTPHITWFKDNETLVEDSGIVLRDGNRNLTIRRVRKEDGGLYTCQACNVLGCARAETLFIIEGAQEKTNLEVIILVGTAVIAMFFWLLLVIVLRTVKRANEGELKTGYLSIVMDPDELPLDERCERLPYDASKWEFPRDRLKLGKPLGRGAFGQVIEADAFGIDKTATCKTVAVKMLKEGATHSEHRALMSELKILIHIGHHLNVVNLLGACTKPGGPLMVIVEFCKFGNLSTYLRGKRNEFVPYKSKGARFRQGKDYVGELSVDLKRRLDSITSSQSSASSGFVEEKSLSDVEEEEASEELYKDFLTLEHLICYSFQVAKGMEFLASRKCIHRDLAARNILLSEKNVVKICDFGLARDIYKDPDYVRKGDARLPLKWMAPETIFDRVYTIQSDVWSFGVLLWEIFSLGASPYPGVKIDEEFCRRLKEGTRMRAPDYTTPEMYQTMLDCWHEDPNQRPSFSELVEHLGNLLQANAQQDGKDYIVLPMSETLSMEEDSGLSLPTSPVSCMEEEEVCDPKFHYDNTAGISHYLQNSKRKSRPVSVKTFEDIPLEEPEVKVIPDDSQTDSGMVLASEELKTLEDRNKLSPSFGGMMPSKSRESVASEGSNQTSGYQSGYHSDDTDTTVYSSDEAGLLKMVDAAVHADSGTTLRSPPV
- assay_method_text: FLK-1 ELISA (kinase activity of the FLK-1 receptor in FLK-1/NIH3T3 cells, VEGF stimulated)
- Type: cell-based
Satisfied if Fik Kinase %Inhibition is below 10%. Not satisfied if not; exact matches included in Not satisfied.

Answered examples (10):
>>> print(df.to_string())
                              smiles_string     class_name
0  CC(C)(C)c1cc(C=C2C(=O)Nc3ccc(S(=O)(=O)Nc4ccc(C(F)(F)F)cc4)cc32)cc(Cl)c1O  Not satisfied
1  CCN(CC)c1ccc(C=C2C(=O)Nc3ccc(S(=O)(=O)Nc4ccc(C(F)(F)F)cc4)cc32)cc1      Satisfied
2  CCOC(=O)CCc1c(C(=O)OCC)[nH]c(C=C2C(=O)Nc3ccc(S(=O)(=O)N4CCOCC4)cc32)c1CC(=O)OCC  Not satisfied
3  Cc1c(Br)ccc2c1C(=Cc1ccc(N3CCN(C=O)CC3)cc1)C(=O)N2  Not satisfied
4  O=C1Nc2ccc(S(=O)(=O)Nc3ccc(C(F)(F)F)cc3)cc2C1=Cc1ccc(N2CCOCC2)cc1  Not satisfied
5  COc1cc(OC)c(OC)cc1C=C1C(=O)Nc2ccc(S(=O)(=O)Nc3ccc(C(F)(F)F)cc3)cc21  Not satisfied
6  O=C1Nc2ccc(CCCl)cc2C1=Cc1ccc2c(c1)Cc1ccccc1-2  Not satisfied
7  CNS(=O)(=O)c1ccc2c(c1)C(=Cc1sc3scc(C)c3c1C)C(=O)N2  Not satisfied
8              O=C1Nc2ccc(I)cc2C1=Cc1ccncc1      Satisfied
9  CC(C)(C)c1cc(C=C2C(=O)Nc3c(Br)cc(Br)cc32)cc(C(C)(C)C)c1OCc1ccccc1      Satisfied

Exercise: Strictly below 10%: is that where Fik Kinase %Inhibition of O=C1Nc2ccc(I)cc2C1=Cc1cc(Cl)cc(Cl)c1O sits?
Solution: Not satisfied

Exercise: Strictly below 10%: is that where Fik Kinase %Inhibition of Cc1c(Br)ccc2c1C(=Cc1cccnc1)C(=O)N2 sits?
Solution: Satisfied

Exercise: Strictly below 10%: is that where Fik Kinase %Inhibition of O=C1Nc2ccc(S(=O)(=O)Nc3ccc(C(F)(F)F)cc3)cc2C1=Cc1cc([N+](=O)[O-])cc(CCl)c1O sits?
Solution: Not satisfied

Exercise: Strictly below 10%: is that where Fik Kinase %Inhibition of Cc1c(Br)ccc2c1C(=Cc1ccc(N3CCOCC3)cc1)C(=O)N2 sits?
Solution: Satisfied

Exercise: Strictly below 10%: is that where Fik Kinase %Inhibition of CNS(=O)(=O)c1ccc2c(c1)C(=Cc1cccc(Br)c1)C(=O)N2 sits?
Solution: Satisfied

Exercise: Strictly below 10%: is that where Fik Kinase %Inhibition of COc1c(I)cc(C=C2C(=O)Nc3c(Br)cc(Br)cc32)cc1C(C)(C)C sits?
Solution: Satisfied

Exercise: Strictly below 10%: is that where Fik Kinase %Inhibition of O=C1Nc2c(Br)cc(Br)cc2C1=Cc1sccc1Br sits?
Solution: Satisfied
